These entries and their values trace back to ChEMBL document CHEMBL1143549.

experimentalSystem: Angiopoietin-1 receptor (Homo sapiens, UniProt Q02763)
Sequence (Q02763 whole entry): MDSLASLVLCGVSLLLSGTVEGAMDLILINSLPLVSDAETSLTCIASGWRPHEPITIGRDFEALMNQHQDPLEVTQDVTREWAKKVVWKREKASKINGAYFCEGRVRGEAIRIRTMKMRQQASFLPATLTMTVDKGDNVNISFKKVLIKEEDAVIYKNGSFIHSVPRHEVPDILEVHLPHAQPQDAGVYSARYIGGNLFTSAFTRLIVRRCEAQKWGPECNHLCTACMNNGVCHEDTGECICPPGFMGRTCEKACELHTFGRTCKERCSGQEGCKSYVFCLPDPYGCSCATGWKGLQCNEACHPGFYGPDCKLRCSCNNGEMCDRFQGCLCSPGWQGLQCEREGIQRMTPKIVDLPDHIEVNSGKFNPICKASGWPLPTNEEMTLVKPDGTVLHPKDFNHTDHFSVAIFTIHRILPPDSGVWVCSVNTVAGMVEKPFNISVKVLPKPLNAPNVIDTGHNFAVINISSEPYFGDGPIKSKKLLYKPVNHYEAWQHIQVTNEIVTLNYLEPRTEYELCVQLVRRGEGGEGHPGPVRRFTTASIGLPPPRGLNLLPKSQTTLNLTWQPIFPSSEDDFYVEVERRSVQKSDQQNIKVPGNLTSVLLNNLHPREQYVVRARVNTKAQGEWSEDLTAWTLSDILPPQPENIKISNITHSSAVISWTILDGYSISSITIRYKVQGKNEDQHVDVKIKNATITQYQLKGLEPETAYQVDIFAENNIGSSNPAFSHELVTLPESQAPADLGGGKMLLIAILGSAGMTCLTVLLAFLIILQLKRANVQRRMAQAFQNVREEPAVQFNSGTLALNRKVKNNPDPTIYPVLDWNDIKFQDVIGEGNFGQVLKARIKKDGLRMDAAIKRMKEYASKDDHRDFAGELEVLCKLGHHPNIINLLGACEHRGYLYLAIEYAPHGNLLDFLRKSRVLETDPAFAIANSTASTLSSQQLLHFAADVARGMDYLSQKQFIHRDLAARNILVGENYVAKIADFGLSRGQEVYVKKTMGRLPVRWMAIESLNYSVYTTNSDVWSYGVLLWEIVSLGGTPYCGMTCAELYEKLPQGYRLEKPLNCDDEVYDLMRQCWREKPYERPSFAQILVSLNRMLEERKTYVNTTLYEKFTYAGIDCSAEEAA
runDescription: Inhibitory concentration against human tyrosine protein kinase receptor TIE-2
Property: IC50; scope: individual molecules
// return numeric value only (unit: nM, not printed)

Please give the documented IC50 of "COc1ccc(-c2oc3ncnc(N)c3c2-c2ccc(OC)cc2)cc1"
1000

Please give the documented IC50 of "COc1ccc(-c2oc3ncnc(N)c3c2-c2ccc(NC(=O)Nc3cc(C(F)(F)F)ccc3F)cc2)cc1"
2

###

experimentalSystem: Vascular endothelial growth factor receptor 2 (Homo sapiens, UniProt P35968)
Sequence (P35968 whole entry): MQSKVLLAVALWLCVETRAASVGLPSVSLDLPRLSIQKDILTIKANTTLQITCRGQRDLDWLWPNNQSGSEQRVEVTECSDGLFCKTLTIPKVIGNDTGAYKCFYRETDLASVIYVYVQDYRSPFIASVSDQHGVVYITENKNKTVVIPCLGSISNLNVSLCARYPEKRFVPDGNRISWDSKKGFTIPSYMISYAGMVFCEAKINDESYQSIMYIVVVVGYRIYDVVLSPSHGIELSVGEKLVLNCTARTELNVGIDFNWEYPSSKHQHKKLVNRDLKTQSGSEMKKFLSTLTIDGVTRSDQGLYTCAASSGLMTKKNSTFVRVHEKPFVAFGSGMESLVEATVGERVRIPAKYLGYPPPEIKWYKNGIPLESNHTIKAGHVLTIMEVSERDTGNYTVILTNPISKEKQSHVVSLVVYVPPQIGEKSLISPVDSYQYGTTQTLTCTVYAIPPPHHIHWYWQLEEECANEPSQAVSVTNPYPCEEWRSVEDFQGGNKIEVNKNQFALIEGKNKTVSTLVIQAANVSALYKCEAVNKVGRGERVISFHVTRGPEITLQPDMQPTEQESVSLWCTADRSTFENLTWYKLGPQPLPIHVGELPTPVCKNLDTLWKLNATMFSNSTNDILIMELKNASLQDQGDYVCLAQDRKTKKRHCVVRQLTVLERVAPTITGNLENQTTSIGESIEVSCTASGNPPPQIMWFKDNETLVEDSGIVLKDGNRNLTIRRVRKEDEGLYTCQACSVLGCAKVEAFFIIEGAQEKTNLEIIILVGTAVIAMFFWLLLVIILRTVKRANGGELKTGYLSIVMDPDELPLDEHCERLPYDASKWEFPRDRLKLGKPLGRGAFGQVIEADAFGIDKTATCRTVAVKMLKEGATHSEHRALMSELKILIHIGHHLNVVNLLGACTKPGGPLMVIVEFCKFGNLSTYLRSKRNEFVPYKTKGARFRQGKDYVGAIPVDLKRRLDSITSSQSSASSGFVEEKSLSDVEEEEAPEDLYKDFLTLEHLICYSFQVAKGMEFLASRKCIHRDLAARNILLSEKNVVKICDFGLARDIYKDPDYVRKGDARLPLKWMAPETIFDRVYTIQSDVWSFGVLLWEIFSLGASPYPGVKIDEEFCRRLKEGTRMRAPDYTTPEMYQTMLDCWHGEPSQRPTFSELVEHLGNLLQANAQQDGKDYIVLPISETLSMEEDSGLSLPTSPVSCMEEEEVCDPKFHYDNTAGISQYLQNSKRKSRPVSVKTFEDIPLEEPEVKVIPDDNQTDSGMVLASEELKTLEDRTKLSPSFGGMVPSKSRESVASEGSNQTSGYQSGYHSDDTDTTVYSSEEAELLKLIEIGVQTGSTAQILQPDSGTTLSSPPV
runDescription: Inhibitory concentration against human vascular endothelial growth factor receptor 2
Property: pIC50; scope: individual molecules
Note on pIC50: it is the negative log10 of concentration, concentration in mol/L.

COc1ccc(-c2coc3ncnc(N)c23)cc1 [GW642125X] = 5.26

Please give the documented pIC50 of "COc1ccc(-c2oc3ncnc(N)c3c2-c2ccc(OC)cc2)cc1"
5.95
